assay notes: Lipophilicity, log P of the compound
Format: physicochemical
measurement conditions: octanol/water
Each item that follows carries a reported logP.
readout kind: logP

record_smiles=Cc1nc(-c2ccc(OCC(C)C)c(C#N)c2)sc1C(=O)OCC(C)C meas_value=0
record_smiles=Cc1nc(-c2ccc(OCC(C)C)c(C#N)c2)sc1C(=O)n1ccc(N)nc1=O meas_value=1.59
record_smiles=Cc1nc(-c2ccc(OCC(C)C)c(C#N)c2)sc1C(=O)NCc1ccc(F)cc1 meas_value=2.86
record_smiles=COC(=O)c1sc(-c2ccc(OCC(C)C)c(C#N)c2)nc1C meas_value=1.63
record_smiles=Cc1nc(-c2ccc(OCC(C)C)cc2)sc1C(=O)O meas_value=3.08
record_smiles=Cc1nc(-c2ccc(OCC(C)C)c(C#N)c2)sc1C(=O)N1CCC(c2noc3cc(F)ccc23)CC1 meas_value=2.7
record_smiles=Cc1nc(-c2ccc(OCC(C)C)c(C#N)c2)sc1C(=O)NCc1cccc(F)c1 meas_value=2.86
record_smiles=Cc1nc(-c2ccc(OCC(C)C)c(C#N)c2)sc1C(=O)NCc1ccccc1F meas_value=2.9
record_smiles=Cc1nc(-c2ccc(OCC(C)C)c(C#N)c2)sc1C(=O)n1cc(F)c(N)nc1=O meas_value=0.94
record_smiles=Cc1nc(-c2ccc(OCC(C)C)c(C#N)c2)sc1C(=O)Nc1ccccc1 meas_value=4.57
record_smiles=Cc1nc(-c2ccc(OCC(C)C)c(C#N)c2)sc1C(=O)NCc1ccccc1 meas_value=2.2
record_smiles=Cc1nc(-c2ccc(OCC(C)C)c(C#N)c2)sc1C(=O)O meas_value=1.35
